test: Half life in dog at 3 mg/kg, po administered as single dose by LC/MS/MS analysis; format: ADME, organism-based, Canis lupus familiaris; conditions: in vivo
READOUT KIND: half-life
Hey, just the number and the unit after it is fine.

The compound CCOC(=O)N1CC/C(=C\C#Cc2cccc(C)n2)C1 showed half-life equal to 2.02 h

----------
assay: Metabolic stability in human liver microsomes assessed as parent compound remaining at 0.2 mM after 30 mins in presence of NADPH by HPLC-MS/MS analysis; assay type: ADME, Microsome; conditions: read-out: Stability
Form field: remaining at 0.5 h, 200 µM (one value per entry).

- SAMPLE SMILES: "Cc1cccc(C#CC=C2CCN(C(=O)OCc3ccccc3)CC2)n1"
  remaining at 0.5 h, 200 µM: "65%"
- SAMPLE SMILES: "CCS(=O)(=O)N1CCC(=CC#Cc2cccc(C)n2)CC1"
  remaining at 0.5 h, 200 µM: "86%"
- SAMPLE SMILES: "CCOC(=O)N1CC/C(=C\\C#Cc2cccc(C)n2)C1"
  remaining at 0.5 h, 200 µM: "> 95%"
- SAMPLE SMILES: "CCOC(=O)N1CCC(=CC#Cc2cccc(C)c2)CC1"
  remaining at 0.5 h, 200 µM: "71%"
- SAMPLE SMILES: "COc1ccccc1C(=O)N1CCC(=CC#Cc2cccc(C)n2)CC1"
  remaining at 0.5 h, 200 µM: "3 to 3.3%"

The molecule Cc1cccc(C#CC=C2CCN(C(=O)OCCc3ccccc3)CC2)n1 showed remaining at 0.5 h, 200 µM equal to 19%
